- ASSAY_SUMMARY: chemical genetic growth profiling, strain panel (AID 1159580);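 note: tested at 20 µM; growth read once vehicle control cultures reached saturation at 30 °C; 1 = growth at the plate median or of vehicle wells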
- CONDITION_INFO: S. cerevisiae deletion strains, growth OD, locus YJL168C, strain set2, stronger effect = lower value
The whole screen tested about 5,500 compounds, of which about 2,000 (36%) were called active. Inconclusive results (about 18%) are left out. This is one part of the list.
OBSERVABLE: normalized growth
Answers are plain numbers.

Look at each compound and report its normalized growth.
1. CC12CCC3C(CCC4(O)CC(O)CCC34/C=N/NC(N)=O)C1(O)CCC2C1=CC(=O)OC1 (stereo not drawn)
2. C[C@H]1OC(O[C@H]2[C@@H](O)CC(O[C@H]3[C@@H](O)C[C@H](O[C@H]4CC[C@]5(C)C6CC[C@]7(C)[C@@H](C8=CC(=O)OC8)[C@@H](O)C[C@]7(O)[C@@H]6CC[C@@H]5C4)O[C@@H]3C)O[C@@H]2C)C[C@H](O)C1O (stereo partly drawn)
3. C[C@]12CC[C@H](O)C[C@H]1CCC1C2CC[C@]2(C)[C@@H](C3=CC(=O)OC3)[C@@H](O)C[C@]12O (stereo partly drawn)

Reply:
1: 0.991; 2: 0.996; 3: 0.975

----------
- ASSAY_SUMMARY: chemical genetic growth profiling, strain panel (AID 1159580);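 note: tested at 20 µM; growth read once vehicle control cultures reached saturation at 30 °C; 1 = growth at the plate median or of vehicle wells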
- CONDITION_INFO: S. cerevisiae deletion strains, growth OD, locus YNL209W, strain ssb2, stronger effect = lower value
The whole screen tested about 5,500 compounds, of which about 2,000 (36%) were called active. Another 18% or so got no clear call; they are omitted. This is one part of the list.
Classify: 1 when normalized growth is strictly less than 1; -1 when normalized growth is not.

C=CCSSCC=C: -1

Task item: Please check: normalized growth for CN[C@H]1CC[C@@H](c2ccc(Cl)c(Cl)c2)c2ccccc21 , strictly under 1 or not?
Reply: 1

Task item: Please check: normalized growth for C[C@H]1[C@H](C)CC[C@]2(C(=O)O)CC[C@]3(C)C(=CCC4[C@@]5(C)C[C@@H](O)[C@H](O)[C@@](C)(CO)C5[C@H](O)C[C@]43C)[C@H]12 (stereo partly specified) , strictly under 1 or not?
Reply: 1

----------
- ASSAY_SUMMARY: chemical genetic growth profiling, strain panel (AID 1159580);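 note: tested at 20 µM; growth read once vehicle control cultures reached saturation at 30 °C; 1 = growth at the plate median or of vehicle wells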
- CONDITION_INFO: S. cerevisiae deletion strains, growth OD, locus YKL067W, strain YNK1, stronger effect = lower value
The campaign covered roughly 5,500 compounds. About 2,000 (36%) were called active. About 18% were inconclusive and are not listed. The list shows a part of the results.
Classify: 1.0 when normalized growth is strictly less than 0.9; 0.0 when normalized growth is not.

Solved cases (2 shown):
CN(C)/C=C1\CSc2ccc(Cl)cc2C1=O: 1.0
C/C(=N/NC(N)=S)c1csc(-c2ccccc2)n1: 1.0

Task item: Please check: normalized growth for O=S(=O)(c1cc(Cl)ccc1Cl)N1CCc2ccccc2C1 , strictly under 0.9 or not?
Reply: 0.0

Task item: Please check: normalized growth for FC(F)(F)Oc1ccc(OCc2n[nH]c(=S)n2-c2ccc(Cl)cc2)cc1 , strictly under 0.9 or not?
Reply: 0.0

----------
What normalized growth was measured for each of the following?
- ASSAY_SUMMARY: chemical genetic growth profiling, strain panel (AID 1159580);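 note: tested at 20 µM; growth read once vehicle control cultures reached saturation at 30 °C; 1 = growth at the plate median or of vehicle wells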
- CONDITION_INFO: S. cerevisiae deletion strains, growth OD, locus YPL240C, strain hsp82, stronger effect = lower value
Screen size: about 5,500 compounds; about 2,000 (36%) were called active. Not shown: some 18% with an inconclusive outcome. Some of the results follow.
Give bare numbers.

Below, each entry is followed by its recorded normalized growth result.
CCC(=O)O[C@]1(C(=O)CCl)[C@@H](C)CC2C3CCC4=CC(=O)C=C[C@]4(C)[C@@]3(F)[C@@H](O)C[C@@]21C (stereo partly drawn): 1.01
CC(=O)OCC(=O)[C@@]1(O)CCC2C3C[C@H](C)C4=CC(=O)C=CC4(C)C3[C@@H](O)CC21C (stereo partly drawn): 0.994
NC(=O)c1ccc([N+](=O)[O-])cc1Cl: 0.986

Look at each compound and report its normalized growth.
1. CCC(=O)OCC(=O)[C@@]1(OC(=O)CC)[C@@H](C)CC2C3CCC4=CC(=O)C=C[C@]4(C)C3(F)[C@@H](O)C[C@@]21C (stereo partly drawn)
2. CCn1nc(C(=O)O)c(=O)c2cc3c(cc21)OCO3
3. Cc1c(C(N)=O)cc([N+](=O)[O-])cc1[N+](=O)[O-]
4. CC(=O)O[C@@H]1c2c(ccc3ccc(=O)oc23)OC(C)(C)[C@@H]1OC(=O)CC(C)C
5. COC1=CC(C)[C@@H]2C[C@H]3OC(=O)C[C@H]4C(C)=C(OC)C(=O)C([C@@]34C)[C@@]2(C)C1=O (stereo partly drawn)
6. C[C@H]1O[C@@H](O[C@H]2[C@@H](O)C[C@H](O[C@H]3[C@@H](O)C[C@H](O[C@H]4CC[C@]5(C)C6C[C@@H](O)[C@]7(C)[C@@H](C8=CC(=O)OC8)CC[C@]7(O)C6CC[C@@H]5C4)O[C@@H]3C)O[C@@H]2C)C[C@H](O)[C@@H]1O (stereo partly drawn)
7. NCCCC(O)(P(=O)(O)O)P(=O)(O)O

Reply:
1: 0.997; 2: 0.999; 3: 1.02; 4: 1; 5: 0.987; 6: 0.99; 7: 0.992

Look at each compound and report its normalized growth.
1. COC1CC(OC2CCC3(C)C(CCC4C3CCC3(C)C(C5=CC(=O)OC5)C(OC(C)=O)CC43O)C2)OC(C)C1O (stereo not drawn)
2. O=S(=O)(O)O
3. CN(C)CC[C@H](c1ccc(Cl)cc1)c1ccccn1

Reply:
[1.02, 0.957, 0.997]
